Assay system 5-HT1A receptor (Rattus norvegicus, UniProt P19327); read-out recorded as IC50.
Report the value in nM with no unit label.

Entry O=C(C(CCN1CCN(c2cccc3[nH]ccc23)CC1)c1ccccc1)N1CC2CCC(CC2)C1 (centres unmarked) [Example 14] , system 5-HT1A receptor (Rattus norvegicus, UniProt P19327): what IC50 was measured?
1.96

Find IC50 (5-HT1A receptor (Rattus norvegicus, UniProt P19327)) for the entry O=C(C(CCN1CCN(c2ccccn2)CC1)c1ccccc1)N1C2CCCC1CC2 (centres unmarked) [Example 8]
3.5

What is its IC50 for 5-HT1A receptor (Rattus norvegicus, UniProt P19327)? Entry: COc1ccccc1N1CCN(CCC(C(=O)N2C3CCCC2CC3)c2ccccc2)CC1 (centres unmarked) [Example 1]
3.3

Query for 5-HT1A receptor (Rattus norvegicus, UniProt P19327): what IC50 does the record show for COc1ccccc1N1CCN(CCC(C(=O)N2CC3CCC(CC3)C2)c2ccccc2)CC1 (centres unmarked) [Example 15] ?
0.58

Please tell me: IC50 of COc1ccccc1N1CCN(CCC(C(=O)N2CC3CC=CCC3C2)c2ccccc2)CC1 (centres unmarked) [Example 16] , system 5-HT1A receptor (Rattus norvegicus, UniProt P19327)?
4.46

Query for 5-HT1A receptor (Rattus norvegicus, UniProt P19327): what IC50 does the record show for O=C(C(CCN1CCN(c2cccc3[nH]ccc23)CC1)c1ccccc1)N1C2CCCC1CC2 (centres unmarked) [Example 5] ?
3.73

Any idea what IC50 came out for COc1ccc(F)cc1N1CCN(CCC(C(=O)N2C3CCCC2CC3)c2ccccc2)CC1 (centres unmarked) [Example 2] on 5-HT1A receptor (Rattus norvegicus, UniProt P19327)?
1.48

Under 5-HT1A receptor (Rattus norvegicus, UniProt P19327): IC50 value of O=C(C(CCN1CCN(c2ncccc2C(F)(F)F)CC1)c1ccccc1)N1C2CCCC1CC2 (centres unmarked) [Example 10] ?
17.9
